Items are presented alongside their recorded growth.
- Tested on: T-47D breast
- experimental protocol: NCI-60 one-dose screen, 48 h (100 = growth as untreated, 0 = no growth, -100 = all killed)
- particulars: 10 µM unless noted
This is part of a sample that, as a whole, favours compounds with a hit. Of some 83,000 tested, about 20% had one in any assay.

molecule: CCn1cc(Cc2cc(C(=O)Nc3cc4cc(OC)c(OC)cc4c(C)n3)ccc2Cl)cn1
uom: %
growth: 19.8
--
molecule: Cc1ccc(NC(=O)c2cc3ccccc3cc2O)c(C)c1
uom: %
growth: 97.2
--
molecule: CCOC(=O)C1=C(CCl)N(C)C(=O)NC1c1ccc2c(c1)OCO2 (stereo not given)
uom: %
growth: 35.6
--
molecule: COc1ccc(C2CC(c3ccccc3)=NN2C(=O)c2cc(OC)c(OC)c(OC)c2)cc1O (stereo not given)
uom: %
growth: 70.9
--
molecule: Nc1cc(C(=O)O)cc(-n2c(O)c(C=C3N=c4ccccc4=N3)sc2=S)c1
uom: %
growth: 95.2
--
molecule: O=C1OCC2=C1C(c1ccccc1)c1cc3c(cc1N2CCO)OCCO3 (stereo not given)
uom: %
growth: 50.5
--
molecule: COc1ccc2c(c1)CC[C@@H]1[C@@H]2CC[C@]2(C)c3c(cc(C#N)c4c3sc3ccccc34)C[C@@H]12
uom: %
growth: 102
--
molecule: Cc1cccc(-c2nc(C(C)C)sc2-c2ccnc(NCCCNS(=O)(=O)c3ccc(Cl)cc3)c2)c1
uom: %
growth: 52.5
--
molecule: Cc1ccc(-c2nc(SCC(=O)N3CCN(c4cc5c(cc4F)c(=O)c(C(=O)O)cn5C4CC4)CC3)nc(Cl)c2C#N)cc1
uom: %
growth: 91.1
--
molecule: COCCn1cc(-c2nc(-c3c[nH]c4ncccc34)cs2)c2ccccc21
uom: %
growth: 4.79

---

- System: RPMI-8226 leukemia
- experimental protocol: NCI-60 one-dose screen, 48 h
- particulars: 10 µM unless noted
The panel holds about 83,000 compounds, 20% with a hit somewhere; the sample as a whole holds those more often. Activity calls are given as the source filed them. How the source made its calls: active means growth percent below 10; inactive means the rest.
Labels: active, inactive

compound: C=C1SC(=Nc2ccccc2Cl)N(C(=O)c2sc3ccccc3c2Cl)C1(C)C
cat: active
--
compound: CCCCCc1ccc(S(=O)(=O)Nc2cc(-c3csc(NC(C)=O)n3)ccc2N2CCN(C)CC2)cc1
cat: active
--
compound: O=C(/C=C/C12c3ccccc3C(c3ccccc31)C1C(=O)NC(=O)C12)c1ccc(I)cc1 (stereo not given)
cat: active
--
compound: CC(C)CCC[C@@H](C)[C@H]1CC[C@H]2[C@@H]3CC=C4c5sc(Nc6cc(C(F)(F)F)cc(C(F)(F)F)c6)nc5CC[C@]4(C)[C@H]3CC[C@]12C
cat: inactive
--
compound: O=C(C[C@]1(O)C(=O)Nc2ccc(Br)cc21)c1ccco1
cat: inactive
--
compound: O=C(CCCCCCCC(=O)N1CCCCC1)N1CCCCC1
cat: inactive
--
compound: CN(C)Cc1ccc(NC(=O)c2cncc(C#Cc3cnc(N)c4ncccc34)c2)cc1C(F)(F)F
cat: active
--
compound: c1ccc(-c2ccc3c(c2)C2(CCNCC2)CN3)cc1
cat: inactive
--
compound: COc1ccc(CNc2ccc3nc(NC(=O)CN4CCCCCC4)sc3c2)cc1
cat: inactive
--
compound: CN(C)CCCn1c2c(c3ccncc3c1=O)C(=O)c1ccccc1-2
cat: active
--
compound: CC12OC(CC(O)C1O)n1c3ccccc3c3c4c(c5c6ccccc6n2c5c31)C(=O)N(CCN1CCCC1)C4=O (stereo not given)
cat: active
--
compound: O=S(=O)(Nc1cc(F)cc(F)c1)c1ccc(-c2cnc(C3CC3)o2)cc1
cat: inactive
--
compound: Cc1ccc(NC(=O)c2cc3ccccc3cc2O)c(C)c1
cat: inactive
--
compound: Nc1nc(N)c2c(n1)NC(c1cccc(Nc3ccnc4cc(C(F)(F)F)ccc34)c1)CC(c1ccc3c(c1)OCO3)=N2 (stereo not given)
cat: inactive
--
compound: CN1c2ccccc2S(=O)(=O)n2c(SCC(=O)Nc3nc4ccc(F)cc4s3)nnc21
cat: inactive
--
compound: COC(=O)[C@]1(C)CCC[C@]2(C)[C@H]3C[C@@H]4[C@H]5[C@@H]6CC/C(=N\OCC/C(N)=N/O)[C@H]5[C@@]3(CC[C@H]21)CC4(C(C)C)O6
cat: inactive
--
compound: CCCCCCCCn1ccc2cc(NC(=O)CN=[N+]=[N-])ccc21
cat: inactive
--
compound: CC(=O)c1c(Nc2cccc(F)c2)[nH]c2c(Cl)cc(Cl)c(Cl)c2c1=O
cat: active
--
compound: Nc1ccc(Br)cc1C(F)(F)F
cat: inactive
--
compound: CCOC(=O)c1c(C)nc2ccccc2c1/C=C/c1ccc(F)cc1
cat: inactive
--
compound: Cc1ccc(OCCOCCOCCOc2ccc(C)n(O)c2=S)c(=S)n1O
cat: inactive
--
compound: CN(C)CCn1c(=O)c2ccccc2n2nc3ccccc3c12
cat: inactive
--
compound: C=C1C(=O)O[C@@H]2C3C(=C(C)CC[C@@H]12)CC1O[C@]13C (stereo not given in full)
cat: inactive
--
compound: N#Cc1c(-c2ccccc2)cc(-c2ccccc2)n(CCCCC(=O)NO)c1=O
cat: active
--
compound: COc1nc(/C=C\Nc2ccc3c(c2)OCCOCCOCCOCCO3)nc(OC)n1
cat: inactive
--
compound: N=C(N)c1ccc(OCCSCCOc2ccc(C(=N)N)cc2)cc1
cat: inactive
--
compound: Cc1cccc(NC(=O)Cn2cc(CN3CCN(c4ccnc5cc(Cl)ccc45)CC3)nn2)c1
cat: inactive
--
compound: O=C(Nc1ccc(Nc2ccncc2)cc1)c1ccc(Nc2ccnc3ccc([N+](=O)[O-])cc23)cc1
cat: inactive
--
compound: CCn1cc(C(=O)N/N=C/c2ccccc2)c(=O)c2cc(F)c(N3CCNC(C)C3)c(F)c21 (stereo not given)
cat: active
--
compound: CC/C(=C(\c1ccc(Cl)cc1)c1ccc(OCCN2CCCCC2)cc1)c1ccc(O)cc1
cat: active
--
compound: COC(=O)/C=C1/SC(=NCc2ccccc2)N(CCc2c[nH]c3ccccc23)C1=O
cat: inactive
--
compound: CCOc1ccc(NC(=O)Nc2ccc(OCC)cc2)cc1
cat: inactive
--
compound: Fc1cc2[nH]ncc2c2c3c(c(-c4cn[nH]c4C(F)(F)F)nc12)CCCC3
cat: active
--
compound: O=S(=O)(Nc1ccc2ccccc2c1)c1ccc(-c2cnc(C3CC3)o2)cc1
cat: inactive
--
compound: c1ccc(Nc2nc3c(s2)CCc2c[nH]cc2-3)nc1
cat: inactive
--
compound: CC(C)(C)CC(C)(C)Nc1c(-c2c(O)c3ccccc3oc2=O)nc2sc3ccccc3n12
cat: active
--
compound: COc1cc(OC)c2c(=O)c3c(CC=C(C)C)cc(OC)c(O)c3oc2c1
cat: inactive
--
compound: O=C1/C(=C/c2ccccn2)SC(=S)N1N1CCOCC1
cat: inactive
--
compound: CN(C)c1ccc(CNCCO)cc1
cat: inactive
--
compound: Cn1cc(-c2csc(-c3cn(CCCN4CCOCC4)c4ccc(F)cc34)n2)c2cccnc21
cat: inactive

---

- Test system: A498 renal
- experimental protocol: NCI-60 one-dose screen, 48 h (100 = growth as untreated, 0 = no growth, -100 = all killed)
- particulars: 10 µM unless noted
About 83,000 compounds went through this panel and 20% of them were active in at least one assay; those are over-represented in the sample as a whole.

molecule: COc1ccc(N=C2NN=C(c3c[nH]c4ccccc34)CS2)cc1OC
growth [%]: 62.5

molecule: Cc1ccc2c(c1)=C/C(=C\c1cc(-c3ccccc3)[nH]c1O)C(=O)N=2
growth [%]: 24.7

molecule: CCCCCc1ccc(S(=O)(=O)Nc2cc(-c3csc(NC(C)=O)n3)ccc2N2CCN(C)CC2)cc1
growth [%]: 66.2

molecule: COC12C=C/C(=C(/C(=O)OCc3csc(SC)n3)C(=O)CCCCCCCCC3(OC)C=C/C(=C(/C(=O)OCc4cnc(SC)s4)C(=O)CCCCCCCC1)O3)O2 (centres undefined)
growth [%]: 34.9

---

- Test system: NCI-H460 lung
- experimental protocol: NCI-60 one-dose screen, 48 h
- particulars: 10 µM unless noted
This is part of a sample that, as a whole, favours compounds with a hit. Of some 83,000 tested, about 20% had one in any assay. Calls of active or inactive are those of the source. Rule for the calls: active = growth percent below 10; inactive = the rest.
Labels: TRUE for active, FALSE for inactive

compound: O=C(NN1C(=O)CSC1c1cccc([N+](=O)[O-])c1)c1ccc(NC(=O)c2ccccn2)cc1 (stereo not given)
tgt: NCI-H460 lung
cat: FALSE

compound: Cc1cccc(N=Nc2cccc(C)c2)c1
tgt: NCI-H460 lung
cat: FALSE

compound: COc1ccc(NC(=O)c2ccc(Nc3ncnc4c3cnn4-c3cccc(F)c3)cc2)cc1
tgt: NCI-H460 lung
cat: FALSE

compound: CN1c2ccccc2S(=O)(=O)n2c(SCC(=O)Nc3nc4ccc(F)cc4s3)nnc21
tgt: NCI-H460 lung
cat: FALSE

compound: CCC(C)(C)c1ccc(Nc2ccc(Nc3ccc(C(C)(C)CC)cc3)cc2)cc1
tgt: NCI-H460 lung
cat: FALSE

compound: Nc1nc(N)c2c(n1)NC(c1cccc(Nc3ccnc4cc(C(F)(F)F)ccc34)c1)CC(c1ccc3c(c1)OCO3)=N2 (stereo not given)
tgt: NCI-H460 lung
cat: FALSE

compound: CCOC(=O)c1nnn(-c2no[n+]([O-])c2-c2ccc(OC)cc2)c1COc1cccc2cccnc12
tgt: NCI-H460 lung
cat: TRUE

compound: O=C1c2cccnc2C(=O)c2c1c(C(=O)OCCc1ccccn1)c1ccccn21
tgt: NCI-H460 lung
cat: TRUE

compound: COc1ccc(-c2cc(-c3cn(-c4cccc(Cl)c4)nc3-c3ccc(OC)cc3)on2)cc1
tgt: NCI-H460 lung
cat: FALSE

compound: O=S(O)c1cc(Cl)cc(Cl)c1OCc1ccccc1
tgt: NCI-H460 lung
cat: FALSE
